This collection of values is drawn from patent US20260242436A1.

Molecular target: T1, interleukin-2 beta receptor (SYMANSIS, #4122H) to which a human immunoglobulin Fc region was linked (UniProt P14784 27-239, limits assumed)
T1 construct: Bought receptor-Fc, captured on anti-human immunoglobulin antibody; also called IL-2Rβ; CD122; not shown: human immunoglobulin Fc region
T1 sequence (looked up): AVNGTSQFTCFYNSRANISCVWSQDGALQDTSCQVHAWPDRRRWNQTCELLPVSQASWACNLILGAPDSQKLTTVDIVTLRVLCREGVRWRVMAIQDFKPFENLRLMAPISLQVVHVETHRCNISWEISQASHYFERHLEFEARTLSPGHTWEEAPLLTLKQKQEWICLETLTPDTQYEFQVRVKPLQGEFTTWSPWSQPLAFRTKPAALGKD
Assay: SPR (Biacore T200); receptor-Fc captured on anti-human Ig CM5 chip, analog flowed; relative to analog 1 = 100%
Below, each of the binders is paired with its reported Relative binding affinity (%) value.
Report as a plain number; the unit % is understood.

Solved cases below.
interleukin-2 analog 17 (ligand) PTSSSTKKTQLQLEHLLLDLQMILNGINNYKNPKLTAMLTKKFYMPKKATELKHLQCLEEELKPLEEVLNLAQSKNFHLRPRDLISNINTIVLELKGSETTFMCEYADETATIVEFLNRWITFSQSIISTLT: 9.4
interleukin-2 analog 13 (ligand) PTSSSTKKTQLQLEHLLLDLQMILNGINNYKNPKLTAMLTAKFYMPKKATELKHLQCLEEELKPLEEVLNLAQSKNFHLRPRDLISNINVIVLELKGSETTFMCEYADETATIVEFLNRWITFSQSIISTLT: 149
interleukin-2 analog 77 (ligand) PTSSSTKKTQLQLEHLLLDLQMILNGINNYKNPKLTAMLTKEFYMPKKATELKHLQCLERELKPLEEVLNLAQSKNFHFDPRDWVSNINVFVLELKGSETTFMCEYADETATIVEFLNRWITFSQSIISTLT: 644
interleukin-2 analog 14 (ligand) PTSSSTKKTQLQLEHLLYDLQMILNGINNYKNPKLTAMLTKKFYMPKKATELKHLQCLEEELKPLEEVLNLAQSKNFHLRPRDLISNINVIVLELKGSETTFMCEYADETATIVEFLNRWITFSQSIISTLT: 130
interleukin-2 analog 97 (ligand) PTSSSTKKTQLQLEHLLLDLQMILNGINNYKNPKLTAMLTFKFYMPKKATELKHLQCLEEELKPLEEVLNLAQSKNFHFDPRDLISNINVFVLELKGSETTFMCEYADETATIVEFLNRWITFSQSIISTLT: 3020

Note: attention shifts to another entry.
Q: Fill in: Relative binding affinity (%) of interleukin-2 analog 103 (ligand) PTSSSTKKTQLQLEHLRLDLEMILNGINNYKNPKLTAMLTFKFYMPKKATELKHLQCLEEELKPLEEVLNLAQSKNFHFEPRDVVSNINVFVLELKGSETTFMCEYADETATIVEFLNRWITFSQSIISTLT is ___
A: 13100
